# Tested on: PfSIP2 AP2 domain 1 (GST-tagged)
# experimental-protocol: gcPBM binding intensity (ln(normalized median fluorescence intensity)); higher = stronger DNA binding
Whole data set: some 25,000 sequences, median “ln(normalized median fluorescence intensity)” near 7.1, cut for the highest 2% near 10. This is one part of a sample in which the highest values are shown more often than they occur.
Measured gcPBM binding intensity (ln), listed per entry for reference.
Just the number, please.

TATGTGTGCAAAAACTGTACACATTAAAGGTATATA [XGTACX_site7627]; 7.54
CCTTTATAAAAAAGTAGTACACAATGAATTTATAAT [XGTACX_site5523]; 7.1
GGTATTTTCACATATAGTACACAAAAATAAAATAAA [XGTACX_site2139]; 7.79
TCTTTTTTTTTTTTTTTTTTTTTTTATTTATTCATA [CACACA_negctrl_site1827]; 6.85
ATGTATTTATTATTTAGTACACATTATTTTCTTATA [XGTACX_site6365]; 7.05
CATGTATGTACCATGGTGCAACAATATTTTTAACAA [GTGCAC_site9597]; 10.6

The reported value for TATATATTATAAAATTGTACATATATTAAATTTTTT [XGTACX_site5852] in terms of gcPBM binding intensity (ln) is 6.93

The reported value for TATATATATTTTATATGTACGTATGGAACAATATGA [XGTACX_site8167] in terms of gcPBM binding intensity (ln) is 7.38

The reported value for TGTGCACGCATATACACACACAAATACAATGATAAA [CACACA_site6656] in terms of gcPBM binding intensity (ln) is 10.6

The reported value for TATGTGCACCCATATACACACACAAATACAATGATA [CACACA_site8295] in terms of gcPBM binding intensity (ln) is 12.3

The reported value for TTTGTTTTTCATAGTGCACACATAACCAAAAATAGT [CACACA_site9030] in terms of gcPBM binding intensity (ln) is 10.5

The reported value for GCTGAAAGGATAAAGGTGCATATTTTTTAAAAAATT [GTGCAC_site9487] in terms of gcPBM binding intensity (ln) is 11.2

The reported value for AAATATTCATAGTATACACACATTTATTTATAACCA [CACACA_site6502] in terms of gcPBM binding intensity (ln) is 6.9

The reported value for GAAATGTGATAATATACACACACGCATATATATATA [CACACA_site4332] in terms of gcPBM binding intensity (ln) is 9.04

The reported value for TACAAACACCCATATACACACAAAAAAAAAATAAAA [CACACA_site5421] in terms of gcPBM binding intensity (ln) is 7.05

The reported value for CATTATGTACAAAAAGTGCAATATATATTAACACTG in terms of gcPBM binding intensity (ln) is 8.23

The reported value for ATATGTACGCAAGGTGCACACTGGTGCATTAAAAAA [CACACA_site1801] in terms of gcPBM binding intensity (ln) is 12.3

The reported value for AATGTGCAAACAAACTGTACTTTTTTTTTTTTTTTT [XGTACX_site928] in terms of gcPBM binding intensity (ln) is 7.84

The reported value for AAAACAATAATATACTGTACATATATATAATAACAT [XGTACX_site6188] in terms of gcPBM binding intensity (ln) is 7.13

The reported value for GAATTTATGAACTGTGCATGTAAAAAAAACAACAAA [TGCATGCA_site449] in terms of gcPBM binding intensity (ln) is 8.15

----------
# Test system: PfSIP2 AP2 domain 1 (GST-tagged)
# experimental-protocol: gcPBM binding intensity (ln(normalized median fluorescence intensity)); higher = stronger DNA binding
Over roughly 25,000 sequences, “ln(normalized median fluorescence intensity)” has its median near 7.1; the highest 2% begin near 10. The sample holds the highest values, similar sequences and a random draw of the others, so the mix is not that of the screen.
Measured gcPBM binding intensity (ln), listed per entry for reference.
Just the number, please.

Some entries whose results are on file:
ATTAAAAAAAAAGAGCGTACAAATAATTACTTCTTT [XGTACX_site8262]; 6.83
GTTCAATTATTTTTATGTACATATATTTTTTTCTTT [XGTACX_site2505]; 7.46
AATATTTTAAGGCACACACACAAAAAAAAAAAAAAA [CACACA_site2890]; 7.22

Query sequence follows.
The reported value for TTTTAACAAAAAAAAAGAAAAGAAAAGAAAATAATA [XGTACX_negctrl_site530] in terms of gcPBM binding intensity (ln) is 6.54

----------
# Tested on: PfSIP2 AP2 domain 1 (GST-tagged)
# experimental-protocol: gcPBM binding intensity (ln(normalized median fluorescence intensity)); higher = stronger DNA binding
The full ranking holds about 25,000 sequences; the median of “ln(normalized median fluorescence intensity)” is about 7.1, and the highest 2% start at about 10. Many of the other results were omitted from the sample, so the highest values are more common in it than they were.
Measured gcPBM binding intensity (ln), listed per entry for reference.
Just the number, please.

Some entries whose results are on file:
ACTTTTTTTTTGTGTGTGCACTCGATTATATACATA [GTGCAC_site9846]; 10.3
ATAATATTTAGGTGTGCACACAAACATACATATATA [CACACA_site9120]; 8.81
GCTATTTATTTATATTGTACTTTTTTTTTTTTTTTT [XGTACX_site3624]; 7.67
AATATTTATGGGTGCACACAAACATACATATATATA [CACACA_site3395]; 11.8
CATACATATACTTTGTGTACATATATATATTATATA [XGTACX_site97]; 7.51

The reported value for ATTATTATTATATATGCATGTAAAATATTAAAGTAC [TGCATGCA_site914] in terms of gcPBM binding intensity (ln) is 7.59

The reported value for TAAACATAAATATGCACACATATACAGATATTCATA [CACACA_site5471] in terms of gcPBM binding intensity (ln) is 7.04

----------
# System: PfSIP2 AP2 domain 1 (GST-tagged)
# experimental-protocol: gcPBM binding intensity (ln(normalized median fluorescence intensity)); higher = stronger DNA binding
Over roughly 25,000 sequences, “ln(normalized median fluorescence intensity)” has its median near 7.1; the highest 2% begin near 10. Many of the other results were omitted from the sample, so the highest values are more common in it than they were.
measured-property: gcPBM binding intensity (ln)
Just the number, please.

Some entries whose results are on file:
AGACAATTTTTTAGTACACACATATAGATATATAAA [CACACA_site6832]; 7.39
ATGCACTCATTGTGCACACGCATATTACGAAAAGAA [CACACA_site2638]; 10.2
TGTGTTCATATATGCACACGCATATATATTATTGTT [CACACA_site3822]; 7.02
ATCATATATTATTTATGTACTTATTTATAATAATAT [XGTACX_site8257]; 7.06

Query sequence follows.
The reported value for ACATATATGTATAATACACACACTAATATATAATTG [CACACA_site1966] in terms of gcPBM binding intensity (ln) is 7.15

----------
# Test system: PfSIP2 AP2 domain 1 (GST-tagged)
# experimental-protocol: gcPBM binding intensity (ln(normalized median fluorescence intensity)); higher = stronger DNA binding
Whole data set: some 25,000 sequences, median “ln(normalized median fluorescence intensity)” near 7.1, cut for the highest 2% near 10. The sample as a whole holds a higher share of the highest values than the screen did.
Measured gcPBM binding intensity (ln), listed per entry for reference.
Just the number, please.

Some entries whose results are on file:
TTCTTTGCTTTTCAAACACACAAAAGTTATTATATT [CACACA_site521]; 7.22
ATGTTATATATGTATTGTACGTATTTTGTATATTAT [XGTACX_site6607]; 7.4
ATTTTTTTTTTTTTTATTCCCCTTTCGAAAAAAACC [CACACA_negctrl_site1139]; 7.18
ATTTAATTCGTACATACACACGCACATATATATATA [CACACA_site8415]; 8.85

The reported value for CTTTCTATATAAAATCGTACATATATAATATTATAT [XGTACX_site5807] in terms of gcPBM binding intensity (ln) is 7.3

----------
# System: PfSIP2 AP2 domain 1 (GST-tagged)
# experimental-protocol: gcPBM binding intensity (ln(normalized median fluorescence intensity)); higher = stronger DNA binding
Whole data set: some 25,000 sequences, median “ln(normalized median fluorescence intensity)” near 7.1, cut for the highest 2% near 10. This is one part of a sample in which the highest values are shown more often than they occur.
measured-property: gcPBM binding intensity (ln)
Just the number, please.

Some entries whose results are on file:
AAAAATTAACAAAAGGTGCAAACAAATAGTGGTTTT [GTGCAC_site9998]; 10.8
GAATGTCTAATTTTGATGCACACTTTTGTGCAATTA [CACACA_site2902]; 8.6
ATCATATTTATATTGGTGCATTATGCATGAAATTTA [GTGCAC_site9571]; 9.94
ACATTAACATTGTTGGTGCAAAATTAATATGTTTTT [GTGCAC_site9673]; 9.77
AGGTTTTCTTAAATAGTGCATTATAACAAAAATAAA; 9.66

The reported value for TATAAAAATGTGCACACACACACATATTTATATTTA [CACACA_site6826] in terms of gcPBM binding intensity (ln) is 8.97

The reported value for GTTTGAATATATCAGGTGCATTTATAATTCATATGA in terms of gcPBM binding intensity (ln) is 10.5

The reported value for AAGAAAATATAAAATGCACACTATAAATTGTATATA [CACACA_site7928] in terms of gcPBM binding intensity (ln) is 7.84

The reported value for AAAATGAAGAAGTGCACACATATATATATTTATATA [CACACA_site507] in terms of gcPBM binding intensity (ln) is 10.7

The reported value for CATTTTCATTTTAAGGTGCATTAATATTTATTTTAA [GTGCAC_site9437] in terms of gcPBM binding intensity (ln) is 10.4
